# GI50 values compiled below
- Test system: UACC-62
- TEST: NCI tumour cell line growth inhibition, 48 h
The source made the active and inactive calls. No stated cut-off is given here; in the data, active = GI50 up to about 1.1 µM and inactive = higher.
MEASUREMENT_TYPE: GI50

O=C(N/C(=C\c1ccc(/C=C(\NC(=O)c2ccccc2)c2nc3ccccc3s2)cc1)c1nc2ccccc2s1)c1ccccc1
2.37 µM (inactive)
Oc1ccc([Te]CCNCC[Te]c2ccc(O)cc2)cc1
17 µM (inactive)
O=C(O)c1cc(=O)c2[nH]c3ccccc3c2s1
> 100 µM (inactive)
OCCOCn1cc(Cn2ncc3c(SCc4ccccc4)ncnc32)nn1
37.1 µM (inactive)
O=C(Oc1ccc2c(-c3ccccc3)c(C(=O)Nc3ccc(Cl)cc3)c(=O)oc2c1)c1ccccc1
> 100 µM (inactive)
NC(=O)C(=O)C1CCC2=C(Sc3ccccc3N2)C1=O (stereo not given)
> 100 µM (inactive)
O=C(O)CSc1nnc(/C=C/c2ccccc2)[nH]1
> 100 µM (inactive)
O=C(/C=C/c1ccc(O)c(O)c1)NC(CO)C(=O)O (stereo not given)
> 100 µM (inactive)
O=C(O)C(SC1=NC(=O)C2(NN1)c1ccccc1-c1ccccc12)SC1=NC(=O)C2(NN1)c1ccccc1-c1ccccc12
> 10 µM (inactive)
O=C(O)c1nc2cc(C(F)(F)F)ccc2nc1Nc1ccc(F)cc1
12.6 µM (inactive)
